assay.system: human NKp30 (human) (UniProt O14931)
Sequence (O14931 19-135 limits assumed): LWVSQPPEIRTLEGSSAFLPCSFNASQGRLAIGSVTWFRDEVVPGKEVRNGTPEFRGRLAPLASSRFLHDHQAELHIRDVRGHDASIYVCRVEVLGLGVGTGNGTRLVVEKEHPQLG
procedure.details: BLI, immunoligand on anti-hFc tip
parameter: pKd
By convention, pKd is the negative base-10 log of a molar concentration.

Worked examples, 5 binders total:
ΔB7-H6_S3#12-SEED-PGLALA (bispecific antibody, part only; not given: SEED Fc chains and hu225 Fab, part only) chain, part: DLKVEMMAGGTQITPLNDNVTIFCNIFYSQPLNITEMGITWFWKSLTFDKEVKVFEFFGDHQEAFRPGAIVSPWRLKSGDASLRLPGIQLEEAGEYRCEVVVTPYKAQGTVQLEVVASPAS ... 6.89
ΔB7-H6_S3#6-SEED-PGLALA (bispecific antibody, part only; not given: SEED Fc chains and hu225 Fab, part only) chain, part: DLKVEMMAGGTQITPLNDNVTIFCNIFYSQPLNITHMGITWFWKSLTFDKEVKVFEFWGDHQEAFRPGAIVSPWRLKSGDASLRLPGIQLEEAGEYRCEVVVTPYKAQGTVQLEVVASPAS ... 7.48
ΔB7-H6_S2#1-SEED-PGLALA (bispecific antibody, part only; not given: SEED Fc chains and hu225 EGFR Fab, part only) chain, part: DLKVEMMAGGTQITPLNDNVTIFCNIFYSQPLNITSMGITWFWKSLTFDKEVKVFEFYGDHQEAFRPGAIVSPWRLKSGDASLRLPGIQLEEAGEYRCEVVVTPYKAQGTVQLEVVASPAS ... 6.69
ΔB7-H6_S3#3-SEED-PGLALA (bispecific antibody, part only; not given: SEED Fc chains and hu225 Fab, part only) chain, part: DLKVEMMAGGTQITPLNDNVTIFCNIFYSQPLNITHMGITWFWKSLTFDKEVKVFEFFGDHQEAFRPGAIVSPWRLKSGDASLRLPGIQLEEAGEYRCEVFVTPYKAQGTVQLEVVASPAS ... 6.98
ΔB7-H6_S3#28-SEED-PGLALA (bispecific antibody, part only; not given: SEED Fc chains and hu225 EGFR Fab, part only) chain, part: DLKVEMMAGGTQITPLNDNVTIFCNIFYSQPLNITHMGITWFWKSLTFDKEVKVFEFWGDHQEAFRPGAIVSPWRLKSGDASLRLPGIQLEEAGEYRCEVVVTPLKAQGTVQLEVVASPAS ... 6.35

For the binder shown here, ΔB7-H6_S3#11-SEED-PGLALA (bispecific antibody, part only; not given: SEED Fc chains and hu225 Fab, part only) chain, part: DLKVEMMAGGTQITPLNDNVTIFCNIFYSQPLNITLMGITWFWKSLTFDKEVKVFEFWGDHQEAFRPGAIVSPWRLKSGDASLRLPGIQLEEAGEYRCEVIVTPFKAQGTVQLEVVASPAS , give the reported pKd.
7.41

Query (binder): ΔB7-H6_S2#3-SEED-PGLALA (bispecific antibody, part only; not given: SEED Fc chains and hu225 Fab, part only) chain, part: DLKVEMMAGGTQITPLNDNVTIFCNIFYSQPLNITTMGITWFWKSLTFDKEVKVFEFWGDHQEAFRPGAIVSPWRLKSGDASLRLPGIQLEEAGEYRCEVVVTPLKAQGTVQLEVVASPAS ; field requested: pKd
6.71

Query (binder): ΔB7-H6_S3#21-SEED-PGLALA (bispecific antibody, part only; not given: SEED Fc chains and hu225 Fab, part only) chain, part: DLKVEMMAGGTQITPLNDNVTIFCNIFYSQPLNITLMGITWFWKSLTFDKEVKVFEFWGDHQEAFRPGAIVSPWRLKSGDASLRLPGIQLEEAGEYRCEVVVTPYKAQGTVQLEVVASPAS ; field requested: pKd
7.75

Values compiled from patent US20230287082A1.
